- Test system: TO-N3-2 (biotin conjugate)
- procedure_details: pull-down binding Z-score (relative to library population); higher = stronger binding
- experimental_context: RNA library: Library-2
property_label: pull-down binding Z-score

Name the recorded pull-down binding Z-score of UUCUCGAGUCUAUGGCUCCGGCCGAGAG [hsa-mir-219a-1] , assay system TO-N3-2 (biotin conjugate).
1.1

Name the recorded pull-down binding Z-score of CUCCUCCGCUGCCGCCGGGAGAG [hsa-mir-4785] , assay system TO-N3-2 (biotin conjugate).
0.0312

Name the recorded pull-down binding Z-score of UUGUGGCUUUGGGUGGAUAUUAAUCAGCCACAG [hsa-mir-383] , assay system TO-N3-2 (biotin conjugate).
0.0594

Name the recorded pull-down binding Z-score of UAUUGAAAUCAAUA , assay system TO-N3-2 (biotin conjugate).
-1.72

Name the recorded pull-down binding Z-score of GCUGGUGACAUUGCUAAUUCAUUUCACACCAGC [hsa-mir-4293] , assay system TO-N3-2 (biotin conjugate).
-0.912

Name the recorded pull-down binding Z-score of CCAAAGAAACUUUUUUGG [hsa-mir-6079] , assay system TO-N3-2 (biotin conjugate).
-1.1

Name the recorded pull-down binding Z-score of CUGUUCAGGAGGCUCUCAAUGUGUACA [hsa-mir-199a-1] , assay system TO-N3-2 (biotin conjugate).
0.656

Name the recorded pull-down binding Z-score of AUUGCACGUGUGUGAGGCGGGUGCAGU [hsa-mir-33b] , assay system TO-N3-2 (biotin conjugate).
0.592

Name the recorded pull-down binding Z-score of CAAAUCGCCUCUUCAAUGGAUUUG [hsa-mir-133a-1] , assay system TO-N3-2 (biotin conjugate).
-0.613

Name the recorded pull-down binding Z-score of GGGCUCAGAAUAUGACUAUGUCAUAUUCACUCAAACCACUGAAACAGCUC [SHAPE_invitro_SARS-CoV-2_Motif_328] , assay system TO-N3-2 (biotin conjugate).
-0.4

Further cases:
Name the recorded pull-down binding Z-score of UCUAACUUUAGAGUCCAACCAACAGAAUCUAUUGUUAGA , assay system TO-N3-2 (biotin conjugate).
-0.918

Name the recorded pull-down binding Z-score of GCUGGUCUGACUCACAUGAUGAUCUGGC [IAV_invivo_NP_5_Motif_8+IAV_invivo_NP_5_Motif_8] , assay system TO-N3-2 (biotin conjugate).
0.653

Name the recorded pull-down binding Z-score of UUGAAUCACACACACAUUUCAA [hsa-mir-4803] , assay system TO-N3-2 (biotin conjugate).
-0.644

Name the recorded pull-down binding Z-score of GUGAUAGUAAUAAAGUCUCAU [hsa-mir-135a-2] , assay system TO-N3-2 (biotin conjugate).
-0.0282

Name the recorded pull-down binding Z-score of UAAUGGUUUAACUUCUAUUA [DMSMaPseq_invitro_SARS-CoV-2_Motif_100] , assay system TO-N3-2 (biotin conjugate).
-1.37

Name the recorded pull-down binding Z-score of GCUAUGCAAAUGGC , assay system TO-N3-2 (biotin conjugate).
-0.948

====

- Tested on: TO-3-N3-2 (biotin conjugate)
- procedure_details: pull-down binding Z-score (relative to library population); higher = stronger binding
- experimental_context: RNA library: Library-2
Label fulfilled when pull-down binding Z-score is at or above -0.3; anything below gets not fulfilled.

These recorded examples may help you get a feel for the data.
Reported pull-down binding Z-score at or above -0.3? GCGGUUUUUGCCAUUACUUUUCAUUUUUACCAUUAAAAGUAAUGGCAAAAAGCAU [hsa-mir-548q]
fulfilled

Reported pull-down binding Z-score at or above -0.3? GUUGGAUGGUCUAAUUGUGAAGCUCCUAAC [hsa-mir-141]
fulfilled

Reported pull-down binding Z-score at or above -0.3? GUUUCUGUUGUCUGAAAGGAAAGAAAG [hsa-mir-520e]
not fulfilled

Reported pull-down binding Z-score at or above -0.3? GUAAGAGAAUUCCUUAC
fulfilled

Further cases:
Reported pull-down binding Z-score at or above -0.3? ACAUGCAGUAUUUGG [hsa-mir-1302-8]
fulfilled

Reported pull-down binding Z-score at or above -0.3? GAGUUUGGGCAGCUCAGGCAAACC [hsa-mir-181c]
fulfilled

Reported pull-down binding Z-score at or above -0.3? GAUCAGUUUCACCUAAACUGUUC
not fulfilled

Reported pull-down binding Z-score at or above -0.3? GAGAGUGCUGUCUGAAUGCAAUGC [hsa-mir-500a]
fulfilled

Reported pull-down binding Z-score at or above -0.3? CCAUACAAUAUUUGG [hsa-mir-1302-1]
not fulfilled

Reported pull-down binding Z-score at or above -0.3? GGUACGUUAAUAGUUAAUAGCGUACUUCUUUUUCUUGCUUUCGUGGUAUUCUUGCUAGUUACACUAGCCAUCCUUACUGCGCUUCGAUUGUGUGCGUACU
fulfilled

Reported pull-down binding Z-score at or above -0.3? UGGUUGGUUGGUUGGUUGGUUGGU [G4_r(UGGU)6]
fulfilled
